MEASURE: melting point

- Cc1cc(OCc2cnc(-c3ccc(C(F)(F)F)cc3)cc2C(F)(F)F)ccc1OC(C)(C)C(=O)O [Example 108]: 148 to 149 °C
- Cc1cc(OCc2cnc(-c3ccc(OC(F)(F)F)cc3)cc2Cl)ccc1OC(C)(C)C(=O)O [Example 109]: 179 to 181 °C (dec.)
- COCc1nc(-c2ccc(C(F)(F)F)cc2)ncc1COc1ccc(OC(C)(C)C(=O)O)c(C)c1 [Example 104]: 120 to 121 °C
- COCCc1nc(-c2ccc(C(F)(F)F)nc2)ncc1COc1ccc(OC(C)(C)C(=O)O)c(C)c1 [Example 102]: 140.5 to 141.5 °C (dec.)
- Cc1cc(OCc2ccc(-c3ccc(C(F)(F)F)cc3)nn2)ccc1OC(C)(C)C(=O)O [Example 44]: 191 to 192 °C
- Cc1cc(OCc2ccc(-c3ccc(C(F)(F)F)c(F)c3)nc2C)ccc1OC(C)(C)C(=O)O [Example 38]: 175 to 176 °C
- Cc1cc(OCc2ccc(-c3ccc(OC(F)(F)F)cc3)nc2C)ccc1OC(C)(C)C(=O)O [Example 39]: 149 to 151 °C
- Cc1cc(OCc2ccc(-c3ccc(F)c(C(F)(F)F)c3)nc2C)ccc1OC(C)(C)C(=O)O [Example 24]: 141 to 143 °C
